Experiment: Binding affinity human alpha-1-acid glycoprotein in after 6 hrs by equilibrium dialysis method
Assay type: ADME
quantity measured: pKd
Entry type: numeric. Quantity: pKd, the -log10 of concentration in molar units.

Exercise: What measured pKd goes with CS(=O)(=O)c1ccc(C(=O)Nc2ccc(Cl)c(-c3ccccn3)c2)c(Cl)c1 ?
Solution: 5.82

Origin of the recorded values: ChEMBL document CHEMBL1772967
